Just for reference, BindingDB's records for doi:10.1021/jm300345z is where these values come from.

Target: Excitatory amino acid transporter 2 (Homo sapiens)
Assay: Inhibition of human EAAT2 expressed in HEK293 cells assessed as inhibition of 3[H]-D-Aspartate uptake after 6 mins by scintillation counting method
Let's look at some compounds and their measured IC50.

compound	testedSystem	testValue
N#CC1C(=N)OC2=C(C(=O)CN(C(=O)c3ccccc3)C2)C1c1ccccc1 (configuration not stated)	Excitatory amino acid transporter 2 (Homo sapiens)	> 100 µM

We now examine a further compound.
Exercise: Supply IC50 value. Item: N#CC1C(=N)OC2=C(C(=O)CN(c3ccccc3)C2)C1c1ccccc1 (configuration not stated)
Solution: > 100 µM

###

Target: Excitatory amino acid transporter 3 (Homo sapiens)
Sequence (P43005 whole entry): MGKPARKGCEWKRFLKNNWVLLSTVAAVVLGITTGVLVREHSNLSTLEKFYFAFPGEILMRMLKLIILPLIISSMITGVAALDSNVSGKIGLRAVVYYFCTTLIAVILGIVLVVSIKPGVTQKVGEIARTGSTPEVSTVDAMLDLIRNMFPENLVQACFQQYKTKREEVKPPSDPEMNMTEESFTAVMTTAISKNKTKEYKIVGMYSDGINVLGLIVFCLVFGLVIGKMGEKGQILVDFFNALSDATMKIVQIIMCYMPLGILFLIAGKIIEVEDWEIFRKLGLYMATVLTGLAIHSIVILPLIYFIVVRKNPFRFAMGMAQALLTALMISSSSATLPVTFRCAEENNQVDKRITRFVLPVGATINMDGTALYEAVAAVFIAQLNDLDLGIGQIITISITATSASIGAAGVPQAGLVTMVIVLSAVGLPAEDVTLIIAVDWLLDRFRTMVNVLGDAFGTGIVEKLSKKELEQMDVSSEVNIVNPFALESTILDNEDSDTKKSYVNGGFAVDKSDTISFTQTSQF
Test: Inhibition of human EAAT3 expressed in HEK293 cells assessed as inhibition of 3[H]-D-Aspartate uptake after 6 mins by scintillation counting method
pIC50: −log10 of the molar value.
measuredParameter: pIC50

compound	testedSystem	pIC50
N#CC1C(=N)OC2=C(C(=O)CN(C(=O)c3ccccc3)C2)C1c1ccccc1 (configuration not stated)	Excitatory amino acid transporter 3 (Homo sapiens)	< 4.00

Shifting focus to the compound that follows.
Exercise: Report pIC50 from Excitatory amino acid transporter 3 (Homo sapiens) testing of N#CC1C(=N)OC2=C(C(=O)CN(c3ccccc3)C2)C1c1ccccc1 (configuration not stated)
Solution: < 4.00
